Test system: MCF7 (breast) carcinoma cell line
PROTOCOL_SUMMARY: antiproliferative growth assay, MCF7
Assay type: cell-based, human
CONDITION_DETAILS: MCF7 breast carcinoma cells
PARAMETER_MEASURED: IC50
Note to self: number, then unit, no commentary.

Given the entry COc1ccc(/C=C2/S/C(=N\c3ccc(C(=O)O)cc3)N(C(=O)c3ccccc3)C2=O)cc1 , report its measured IC50. 34.4 µM

====

System: PC3 (prostate) carcinoma cell line
PROTOCOL_SUMMARY: antiproliferative growth assay, PC3
Type: cell-based, human
CONDITION_DETAILS: Homo sapiens; PC3 prostate carcinoma cells
PARAMETER_MEASURED: IC50

Which IC50 reading was recorded for the compound COc1ccc(/C=C2/S/C(=N\c3ccc(C(=O)O)cc3)N(C(=O)c3ccccc3)C2=O)cc1 ? > 100 µM

Any idea what IC50 was measured for O=C(O)c1ccc(/N=C2\S/C(=C/c3ccccc3)C(=O)N2C(=O)c2ccccc2)cc1 ? > 100 µM

Give the measured IC50 of CN(C)c1ccc(/C=C2/S/C(=N\c3ccc(C(=O)O)cc3)N(C(=O)c3ccccc3)C2=O)cc1 . > 100 µM

Given COc1cc(/C=C2/S/C(=N\c3ccc(C(=O)O)cc3)N(C(=O)c3ccccc3)C2=O)cc(OC)c1 , state its recorded IC50. > 100 µM

Which IC50 is listed for COc1ccc(/N=N/c2ccc(O)c(/C=C3/S/C(=N\c4ccc(C(=O)O)cc4)N(C(=O)c4ccccc4)C3=O)c2)cc1 ? > 100 µM

Which IC50 reading was recorded for the compound O=C(O)c1ccc(/N=C2\S/C(=C/Nc3nc[nH]n3)C(=O)N2C(=O)c2ccccc2)cc1 ? 98.5 µM

Reported IC50 for O=C(O)c1ccc(/N=C2\S/C(=C/c3cc(/N=N/c4ccccc4)ccc3O)C(=O)N2C(=O)c2ccccc2)cc1 : what is it? > 100 µM

Name the recorded IC50 for O=C(O)c1ccc(/N=C2\S/C(=C/c3ccc4ccccc4c3)C(=O)N2C(=O)c2ccccc2)cc1 . > 100 µM

Query (compound): CN(C)/C=C1\S/C(=N\c2ccc(C(=O)O)cc2)N(C(=O)c2ccccc2)C1=O ; field requested: IC50 67.4 µM
